Test system: NOMO1
Test: cell viability relative to DMSO control; higher = less cytotoxic
Settings: RPMI 5 mM glucose + 10% dialyzed FBS; 48 h; 0.569 µM
Please provide measured cell viability for the entries that follow.
Numbers only, in %.

The following molecules have reported results that may help.
INSERT INTO assay_data (record_smiles, measured_target, unit_label, endpoint_result) VALUES
  ('CN1CCN(CCCN2c3ccccc3Sc3ccc(C(F)(F)F)cc32)CC1', 'NOMO1', '%', 103),
  ('C[C@H]1COC/2=C1/C(=O)C(=O)C3=C4CCCC(C)(C)C4=CC=C23', 'NOMO1', '%', 148),
  ('Cc1cccc(/C=N/Nc2cc(N3CCOCC3)nc(OCCc3ccccn3)n2)c1', 'NOMO1', '%', 75.9);

[Q] Recorded cell viability of `COc1ncc(-c2ccc3c(Nc4cc(Oc5cc(F)cc(F)c5)cc(C(=O)O)c4)c([S+](=O)([O-])NC4CC4)cnc3c2)c(OC)n1` , please.
[A] 89.7

====

Test system: NOMO1
Assay: cell viability relative to DMSO control; higher = less cytotoxic
Settings: RPMI 5 mM glucose + 10% dialyzed FBS; 48 h; 5.12 µM
Please provide measured cell viability for the entries that follow.
Answers are plain numbers, in %.

INSERT INTO measurements (molecule, endpoint_result) VALUES
  ('COc1ncc(-c2ccc3c(Nc4cc(Oc5cc(F)cc(F)c5)cc(C(=O)O)c4)c([S+](=O)([O-])NC4CC4)cnc3c2)c(OC)n1', 81.1);

Could I get cell viability for every one of these entries?
1. CC(C)Cc1ccc(C(C)C(=O)O)cc1 (stereo not drawn)
2. CC/1=C(\O)C(=O)\C=C2/C1=C/C=C3\[C@@]2(C)CC[C@@]4(C)[C@@H]5C[C@@](C)(CC[C@]5(C)CC[C@]34C)C(O)=O

[A]
81.9
20.6

====

Please provide measured cell viability for the entries that follow.
Tested on: P12-Ichikawa
Test: cell viability relative to DMSO control; higher = less cytotoxic
Settings: RPMI 5 mM glucose + 10% dialyzed FBS; 48 h; 0.00234 µM
Give bare numbers, in %.

The following compounds have reported results that may help.
INSERT INTO measurements (compound, value_kind, endpoint_result) VALUES
  ('C[C@]12CC[C@H]3[C@@H](CCC/4=C/C(=O)CC[C@]34C)[C@@H]1CC[C@@H]2OC(=O)CCC5CCCC5', 'cell viability', 93.5),
  ('Cc1nc(Nc2n[nH]c3c2CN(C(=O)N[C@H](CN(C)C)c2ccccc2)C3(C)C)c2sccc2n1', 'cell viability', 81.4),
  ('Cc1noc(-c2ccc(CSCCC(=O)O)cc2)c1NC(=O)OC(C)c1ccccc1Cl (stereo not drawn)', 'cell viability', 90),
  ('CC1(C)C(N(O)C(=O)Nc2ccc(Cl)cc2)N(c2ccc(Cl)cc2)C(=O)N1CC(=O)N/N=C/C=C/c1ccc([N+](=O)[O-])o1 (stereo not drawn)', 'cell viability', 104),
  ('C=CCc1ccc(O)c(-c2ccc(O)c(CC=C)c2)c1', 'cell viability', 116),
  ('C[C@](N)(Cc1ccc(O)c(O)c1)C(=O)O', 'cell viability', 85.1);

Could I get cell viability for every one of these entries?
1. CCN1CCN(C(=O)Cc2ccc(Nc3ncc(F)c(Nc4ccc(C(=O)Nc5ccccc5Cl)cc4)n3)cc2)CC1
2. C#CCN[C@@H]1CCc2ccccc21.CS(=O)(=O)O
3. N#C[C@H](O[C@@H]1O[C@H](CO[C@@H]2O[C@H](CO)[C@@H](O)[C@H](O)[C@H]2O)[C@@H](O)[C@H](O)[C@H]1O)c1ccccc1
4. C1CCN2C[C@H]3C[C@H](\C=C/4CCCN[C@@H]34)[C@H]2C1

[A]
111
91.9
96.2
104

Could I get cell viability for every one of these entries?
1. CC(C)(C)[C@H](NC(=O)c1ccc(N)c(Cl)c1)C(=O)N1CCC[C@H]1C(=O)N[C@H](C#N)CC(=O)O
2. OCCn1cc(-c2cnc3nnn(Cc4ccc5ncccc5c4)c3n2)cn1
3. CC[C@]1(O)C[C@@H]2CN(CCc3c([nH]c4ccccc34)[C@@](C(=O)OC)(c3cc4c(cc3OC)N(C)[C@H]3[C@@](O)(C(N)=O)[C@H](O)[C@]5(CC)C=CCN6CC[C@]43[C@@H]65)C2)C1

[A]
1: 123; 2: 122; 3: 103
